- measurement.protocol: log P by HPLC on reversed-phase column (C18), EEC directive 79/831 Annex V.A8
- Format: physicochemical
- measurement.setup: log P
Field: chromatographic logP. Provide a value for each of the compounds that follow.
I'd appreciate a reply containing only the number, no unit.

Query: Quick one: chromatographic logP of CO/N=C/c1cc(C)c(NC(=O)c2cc(OCC(F)F)nn2-c2ncccc2Cl)c(C(=O)NN(C)C(=O)OC)c1 ?
Response: 2.58

Query: Also CO/N=C/c1cc(C)c(NC(=O)c2cc(OC(F)F)nn2-c2ncccc2Cl)c(C(=O)NNC(=O)OC)c1 ?
Response: 2.28

Query: Also check CO/N=C/c1cc(C)c(NC(=O)c2cc(OC(F)F)nn2-c2ncccc2Cl)c(C(=O)NN)c1
Response: 2.12

----------
- measurement.protocol: log P by HPLC on reversed-phase column (C18), EEC directive 79/831 Annex V.A8
- Assay type: physicochemical
- measurement.setup: Table C; HPLC reversed-phase C18, 43° C.; data refer to the E isomer
- Protocol: The log P values reported in the tables and Preparation Examples above were determined in accordance with EEC directive 79/831 Annex V.A8 by HPLC (High Performance Liquid Chromatography) using a reversed-phase column (C18). Temperature 43° C. The calibration is effected with unbranched alkan-2-ones (having 3 to 16 carbon atoms), for which the log P values are known.
Exercise: for every item that follows, state its recorded log p.

Query: Any idea what log p was measured for CON=Cc1cc(C)c(NC(=O)c2cc(OC)nn2-c2ncccc2Cl)c(C(=O)NC(C)C2CC2)c1 (mixture of isomers) [C-31] ?
Response: 3.66

Query: Here is the next compound: CON=Cc1cc(C)c(NC(=O)c2cc(C(F)F)nn2-c2ncccc2Cl)c(C(=O)NC(C)C)c1
Response: 2.98

Query: Same thing, different compound: CON=Cc1cc(C)c(NC(=O)c2cc(C(F)F)nn2-c2ncccc2Cl)c(C(=O)NC(C)C2CC2)c1 (stereo not shown)
Response: 3.29

Query: Then CNC(=O)c1cc(C=NOC)cc(C)c1NC(=O)c1cc(OCC(F)F)nn1-c1ncccc1Cl ?
Response: 2.57

Query: C#CCNC(=O)c1cc(C=NOC)cc(C)c1NC(=O)c1cc(CF)nn1-c1ncccc1Cl , same question.
Response: 2.38

Query: Next compound up: CON=Cc1cc(C)c(NC(=O)c2cc(OC)nn2-c2ncccc2Cl)c(C(=O)NC(C)(C)C)c1 (mixture of isomers) [C-37]
Response: 3.71

Query: Check CON=Cc1cc(C)c(NC(=O)c2cc(CF)nn2-c2ncccc2Cl)c(C(=O)NC(C)C2CC2)c1 (stereo not shown) too.
Response: 2.96

Query: What about this compound? CON=Cc1cc(C)c(NC(=O)c2cc(OCC(F)F)nn2-c2ncccc2Cl)c(C(=O)NC(C)C)c1
Response: 3.07

Query: Repeat for the following compound: CON=Cc1cc(C)c(NC(=O)c2cc(OC(C)C)nn2-c2ncccc2Cl)c(C(=O)NC2CC2)c1
Response: 2.98

Query: # iterate: CON=Cc1cc(C)c(NC(=O)c2cc(OC(C)C)nn2-c2ncccc2Cl)c(C(=O)NC(C)C2CC2)c1 (stereo not shown)
Response: 3.65

Query: Follow-up entry: CON=Cc1cc(C)c(NC(=O)c2cc(OCC(F)F)nn2-c2ncccc2Cl)c(C(=O)NC2CC2)c1
Response: 2.91

Query: Same question for CON=Cc1cc(C)c(NC(=O)c2cc(OC)nn2-c2ncccc2Cl)c(C(=O)NC(C)C2CC2)c1 (stereo not shown) [C-25] please.
Response: 3.02

Query: Could you do the same for COCC(C)NC(=O)c1cc(C=NOC)cc(C)c1NC(=O)c1cc(OCC(F)F)nn1-c1ncccc1Cl (stereo not shown) , please?
Response: 2.93

Query: Now give it for CNC(=O)c1cc(C=NOC)cc(C)c1NC(=O)c1cc(OC(C)C)nn1-c1ncccc1Cl too.
Response: 2.75

Query: Also CNC(=O)c1cc(C=NOC)cc(C)c1NC(=O)c1cc(OC)nn1-c1ncccc1Cl (mixture of isomers) [C-33] ?
Response: 2.70

Query: And for CCNC(=O)c1cc(C=NOC)cc(C)c1NC(=O)c1cc(CF)nn1-c1ncccc1Cl ?
Response: 2.39

Query: Ok, now CON=Cc1cc(C)c(NC(=O)c2cc(CF)nn2-c2ncccc2Cl)c(C(=O)NC2CC2)c1
Response: 2.38

Query: // next record CON=Cc1cc(C)c(NC(=O)c2cc(OC)nn2-c2ncccc2Cl)c(C(=O)NC2CC2)c1 [C-23]
Response: 2.40

Query: Now this one: CON=Cc1cc(C)c(NC(=O)c2cc(OC)nn2-c2ncccc2Cl)c(C(=O)NC2CC2)c1 (mixture of isomers) [C-30]
Response: 2.97

Hey, just so you know, these numbers are from patent US9609868B2.
